src = PubChem BioAssay (NCATS)

Test system: W2
assay comment: qHTS profiling for inhibitors of Plasmodium falciparum proliferation (AID 504749); also: nearly all actives have a fitted effect of over 60% in size; also: potency is read from the fitted curve at half-maximal effect
experimental conditions: P. falciparum in erythrocytes, SYBR Green DNA, 72 h; series mostly up to 28.7 µM
Inconclusive results are not listed. Calls of active or inactive are those of the source. Calls follow the shape of the dose curve; as a rule, active = well fitted inhibition curve with a large enough effect; inconclusive = small, poorly fitted or top-dose-only effect; inactive = flat fitted curve, though single readings scatter.
experimental readout: Potency

Below are worked cases with known answers.
1. CCN(CC)C(=O)Nc1ccc(OC[C@H](O)CNC(C)(C)C)c(C(C)=O)c1; inactive
2. Nc1nc(/C(=C/CC(=O)O)C(=O)NC2C(=O)N3C(C(=O)O)=CCSC23)cs1 (centres undefined); inactive
3. CC(O)C(N)C(=O)O (centres undefined); inactive
4. C=CCN1CC(C(=O)N(CCCN(C)C)C(=O)NCC)CC2c3cccc4[nH]cc(c34)CC21 (centres undefined); 6.01 µM (active)
5. OC[C@@H]1O[C@](CO)(O[C@H]2O[C@H](CO)[C@@H](O)[C@H](O)[C@H]2O)[C@H](O)[C@H]1O; inactive

## Input Please give measured Potency of the following entry: O=C1C(I)=CC(=C(c2cc(I)c(O)c(I)c2)c2ccccc2C(=O)O)C=C1I
## Output inactive

## Input Please give measured Potency of the following entry: C[C@@H]1C(SC2Cn3cnc[n+]3C2)=C(C(=O)[O-])N2C(=O)[C@H]([C@@H](C)O)[C@@H]12 (some centres undefined)
## Output inactive

## Input Please give measured Potency of the following entry: CC[C@@]1(O)CC2CN(CCc3c([nH]c4ccccc34)[C@](C(=O)OC)(c3cc4c(cc3OC)N(C)C3[C@@](O)(C(=O)OC)C(OC(C)=O)[C@]5(CC)C=CCN6CC[C@@]43C65)C2)C1 (some centres undefined)
## Output 0.953 µM (active)

## Input Please give measured Potency of the following entry: CC1=C(C/C=C(\C)CCCC(C)CCCC(C)CCCC(C)C)C(=O)c2ccccc2C1=O (centres undefined)
## Output 4.78 µM (active)
